- TARGET SYSTEM: rat orexin 1 receptor (Rattus norvegicus)
- PROTOCOL DESCRIPTION: Rat orexin 1 receptor radioligand binding
- ASSAY CONTEXT: rat orexin 1 receptor; averages of 2-20 runs; read-out: rOX1 Ki
Can you tell me log10 Ki for the items I'm about to list?
The common logarithm of Ki in µM is what is listed.

Reference set, count: 8
O=C(c1cccc(F)c1-c1ncccn1)N1C[C@H]2C[C@@H](Oc3ccc(Cl)cn3)[C@@H]1C2; -2.15
COC(=O)c1cnc(N[C@@H]2C[C@H]3C[C@@H]2N(C(=O)c2ccccc2-n2nccn2)C3)cn1; 0.32
O=C(c1occc1-c1ccccc1)N1C[C@H]2C[C@@H](Nc3cnc(C(F)(F)F)cn3)[C@@H]1C2; -0.84
O=C(c1cc(F)ccc1-n1nccn1)N1C[C@H]2C[C@@H](Nc3ncc(C(F)(F)F)cn3)[C@@H]1C2; -1.70
O=C(c1cccc(F)c1-n1nccn1)N1C[C@H]2C[C@@H](Nc3cnc(Cl)cn3)[C@@H]1C2; -1.85
O=C(c1cccc(F)c1-n1nccn1)N1C[C@H]2C[C@@H](Nc3ncc(C(F)(F)F)cn3)[C@@H]1C2; -1.96
O=C(c1ccccc1-n1nccn1)N1C[C@H]2C[C@@H](Oc3ccc(F)cn3)[C@@H]1C2; -0.88
O=C(c1ccccc1-n1nccn1)N1C[C@H]2C[C@@H](Oc3ncc(C(F)(F)F)cc3F)[C@@H]1C2; -1.68

Respectfully, I request log10 Ki for each entry included below.
1. O=C(c1cccc(F)c1-c1ncccn1)N1C[C@@H]2CC[C@H]1[C@H](Oc1cnc(C(F)(F)F)cn1)C2
2. O=C(c1cc(F)ccc1-c1ncccn1)N1C[C@H]2C[C@@H](Nc3ccc(Cl)cn3)[C@@H]1C2
3. O=C(c1ccccc1-n1nccn1)N1C[C@H]2C[C@@H](Oc3ccc4cccnc4n3)[C@@H]1C2
4. O=C(c1cc(F)ccc1-n1nccn1)N1C[C@H]2C[C@@H](Oc3ccc(Br)cn3)[C@@H]1C2
5. O=C(c1c(F)cccc1-c1ncccn1)N1C[C@H]2C[C@@H](Nc3ncc(C(F)(F)F)cn3)[C@@H]1C2
6. CN(c1cnc(C(F)(F)F)cn1)[C@@H]1C[C@H]2C[C@@H]1N(C(=O)c1ccccc1-c1ncccn1)C2
7. CCc1cnc(O[C@@H]2C[C@H]3C[C@@H]2N(C(=O)c2nc(C)ccc2-n2nccn2)C3)nc1
8. O=C(c1c(F)cccc1-n1nccn1)N1C[C@H]2C[C@@H](Nc3cnc(C(F)(F)F)cn3)[C@@H]1C2

Result:
1. -1.80
2. -2.10
3. -0.81
4. -2.10
5. -2.05
6. -2.22
7. -0.42
8. -2.05

---

- TARGET SYSTEM: human orexin 2 receptor (Homo sapiens (Human), UniProt O43614)
- Sequence (O43614 whole entry): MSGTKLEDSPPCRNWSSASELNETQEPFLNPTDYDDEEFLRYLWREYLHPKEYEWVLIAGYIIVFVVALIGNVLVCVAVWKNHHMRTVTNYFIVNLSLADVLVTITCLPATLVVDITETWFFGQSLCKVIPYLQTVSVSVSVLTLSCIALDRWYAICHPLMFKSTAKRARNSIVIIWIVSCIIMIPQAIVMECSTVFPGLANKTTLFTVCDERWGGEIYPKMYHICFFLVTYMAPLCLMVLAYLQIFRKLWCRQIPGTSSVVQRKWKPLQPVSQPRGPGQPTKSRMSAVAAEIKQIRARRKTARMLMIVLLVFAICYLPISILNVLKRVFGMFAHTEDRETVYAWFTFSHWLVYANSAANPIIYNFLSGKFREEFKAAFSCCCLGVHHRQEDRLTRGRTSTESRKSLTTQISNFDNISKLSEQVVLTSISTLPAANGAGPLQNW
- PROTOCOL DESCRIPTION: Human orexin 2 receptor radioligand binding
- ASSAY CONTEXT: human orexin 2 receptor; averages of 2-20 runs; read-out: hOX2 Ki
READOUT TYPE: Ki

Reference set, count: 5
Cc1cnc(C(=O)N2C[C@@H]3CC[C@H]2[C@H](Oc2ccc(C(F)(F)F)cn2)C3)c(-c2ncccn2)c1 [Example 264]; > 10000 nM
O=C(c1cccc(F)c1-c1ncccn1)N1C[C@H]2C[C@@H](Nc3ncc(C(F)(F)F)cc3F)[C@@H]1C2 [Example 179]; 217 nM
O=C(c1cccc(F)c1-c1ncccn1)N1C[C@H]2C[C@@H](Oc3ncc(C(F)(F)F)cc3F)[C@@H]1C2 [Example 100]; 1600 nM
Cc1cnc(C(=O)N2C[C@H]3C[C@@H](Nc4cnc(C(F)(F)F)cn4)[C@@H]2C3)c(-c2ncccn2)c1 [Example 190]; > 10000 nM
O=C(c1ccccc1-c1ncc(F)cn1)N1C[C@H]2C[C@@H](Nc3ncc(C(F)(F)F)cc3F)[C@@H]1C2 [Example 180]; 380 nM

Respectfully, I request Ki for each entry included below.
1. Cc1cnc(C(=O)N2C[C@H]3C[C@@H](Oc4ccc(C(F)F)cn4)[C@@H]2C3)c(-c2ncccn2)c1 [Example 288]
2. Cc1cnc(N[C@@H]2C[C@H]3C[C@@H]2N(C(=O)c2cc(F)ccc2-n2nccn2)C3)cn1 [Example 218]
3. Cc1cccc(C(=O)N2C[C@H]3C[C@@H](Oc4ccc(C(F)(F)F)cn4)[C@@H]2C3)c1-c1ncc(F)cn1 [Example 91]
4. O=C(c1cccc(F)c1-c1ncccn1)N1C[C@H]2C[C@@H](N(CC3CC3)c3ccc(C(F)(F)F)cn3)[C@@H]1C2 [Example 161]
5. O=C(c1cccc(F)c1-n1nccn1)N1C[C@H]2C[C@@H](Nc3nc4ccccc4o3)[C@@H]1C2 [Example 182]
6. Cc1nc2sccn2c1C(=O)N1CC2CC(Oc3ccc(C(F)(F)F)cn3)C1C2 (racemic) [Example 6]
7. CCc1cnc(O[C@@H]2C[C@H]3C[C@@H]2N(C(=O)c2nc(C)ccc2-c2ncccn2)C3)nc1 [Example 138]
8. O=C(c1ccccc1-c1ncccn1)N1C[C@@H]2CC[C@H]1[C@H](Nc1cnc(C(F)(F)F)cn1)C2 [Example 280]

Result:
["5100 nM", "490 nM", "331 nM", "384 nM", "218 nM", "> 10000 nM", "2700 nM", "189 nM"]

Respectfully, I request Ki for each entry included below.
1. O=C(c1cccc(F)c1-c1ncccn1)N1C[C@H]2C[C@@H](Oc3cccc(C(F)(F)F)n3)[C@@H]1C2 [Example 94]
2. O=C(c1cc(F)ccc1-n1nccn1)N1C[C@H]2C[C@@H](Nc3ncc(C(F)(F)F)cn3)[C@@H]1C2 [Example 225]
3. CN(c1cnc(C(F)(F)F)cn1)[C@@H]1C[C@H]2C[C@@H]1N(C(=O)c1cc(F)ccc1-c1ncccn1)C2 [Example 209]
4. O=C(c1ccc(F)cc1-c1ncccn1)N1C[C@H]2C[C@@H](Oc3ccc(Br)cn3)[C@@H]1C2 [Example 110]
5. O=C(c1c(F)cccc1-c1ncccn1)N1C[C@H]2C[C@@H](Nc3ncc(Cl)cn3)[C@@H]1C2 [Example 239]
6. Cc1ccc(C(=O)N2C[C@H]3C[C@@H](Nc4ccc(C(F)(F)F)cn4)[C@@H]2C3)c(-n2nccn2)n1 [Example 143]
7. O=C(c1cc(F)ccc1-c1ncco1)N1C[C@H]2C[C@@H](Oc3ccc(C(F)(F)F)cn3)[C@@H]1C2 [Example 293]
8. O=C(c1cc(F)ccc1-n1nccn1)N1C[C@H]2C[C@@H](Oc3cnc(C(F)(F)F)cn3)[C@@H]1C2 [Example 124]

Result:
848 nM
800 nM
753 nM
1200 nM
726 nM
7300 nM
535 nM
4500 nM

Respectfully, I request Ki for each entry included below.
1. Cc1ccc(-n2nccn2)c(C(=O)N2C[C@H]3C[C@@H](Oc4cnc(C(F)(F)F)cn4)[C@@H]2C3)n1 [Example 125]
2. O=C(c1ccccc1-c1ncc(F)cn1)N1C[C@@H]2CC[C@H]1[C@H](Oc1cnc(C(F)(F)F)cn1)C2 [Example 272]
3. Cc1ccc(-c2ncccn2)c(C(=O)N2C[C@H]3C[C@@H](Oc4ncc(Cl)cn4)[C@@H]2C3)n1 [Example 285]
4. O=C(c1c(F)cccc1-c1ncco1)N1C[C@H]2C[C@@H](Nc3ncc(C(F)(F)F)cn3)[C@@H]1C2 [Example 232]

Result:
1. 5500 nM
2. 1400 nM
3. 6000 nM
4. 1350 nM
